Cited source: PubChem BioAssay (Tox21)

Test: qHTS assay to identify small molecule agonists of the progesterone receptor (PR) signaling pathway - cell viability counter screen (AID 1346799); further: nearly all actives have a fitted effect of over 45% in size
Details: PR-UAS-bla HEK293T viability, CellTiter-Glo luminescence, 16 h; series mostly up to 92.4 µM
Source text: National Center for Advancing Translational Sciences [NCATS] NIH Chemical Genomics Center [NCGC] U.S. Environmental Protection Agency [EPA] National Institutes of Environmental Health Sciences [NIEHS] National Toxicology Program [NTP] U.S. Food and Drug Administration [FDA] Progesterone receptor (PR), a nuclear hormone receptor, plays an important role in development, metabolic homeostasis and reproduction. It is activated by the steroid hormone progesterone. […]
Records with an inconclusive call do not appear. Calls of active or inactive are those of the source. The call rests on the fitted dose curve.
Labels: 1 (active), -1 (inactive)

| Compound | Assigned category |
| --- | --- |
| O=C1CCC(=O)O1 | -1 |
| COC(C)(C)CCO | -1 |
| NCC(=O)CCC(=O)O | -1 |
| O=C(O)C1(C(=O)O)CCC1.[NH2-].[NH2-].[Pt+2] | -1 |
| C#Cc1cccc(Nc2ncnc3cc(OCCOC)c(OCCOC)cc23)c1 | -1 |
| COC(=O)c1ccc(I)cc1S(=O)(=O)NC(=O)Nc1nc(C)nc(OC)n1 | -1 |
| C=CCOC(=O)CCC1CCCCC1 | -1 |
| O=S(c1cc(Cl)cc(Cl)c1O)c1cc(Cl)cc(Cl)c1O | -1 |
| COC(C)OC | -1 |
| CC1OC(=O)C(C)OC1=O (stereo not drawn) | -1 |
| Nc1ccc(S(=O)(=O)Nc2ccccc2)cc1 | -1 |
| C[N+](C)(C)CCOC(=O)CCC(=O)OCC[N+](C)(C)C | -1 |
| CCCCCCCCCCCCCCOS(=O)(=O)O | 1 |
| CN1CCC(=C2c3ccccc3Sc3ccccc32)CC1 | -1 |
| OC(CN1CCC(Cc2ccc(F)cc2)CC1)c1ccc(Cl)cc1 (stereo not drawn) | -1 |
| CCCC(=O)Nc1ccc(O)c(C(C)=O)c1 | -1 |
| CC(=O)[O][Al] | -1 |
| CC(C)Cc1ccc(C(C)C(=O)OCc2ccccn2)cc1 (stereo not drawn) | -1 |
| NCCCN1CCOCC1 | -1 |
| CCC(CC)Nc1ccc(C)c(C)c1 | -1 |
| CN(C)c1ccc(C(c2ccccc2)c2ccc(N(C)C)cc2)cc1 | -1 |
| CCCCCCCCCCCc1ccccc1 | -1 |
| C[C@H](CCC(=O)O)[C@H]1CC[C@H]2[C@@H]3CC[C@@H]4C[C@H](O)CC[C@]4(C)[C@H]3C[C@H](O)[C@]12C | 1 |
| CCCCc1ncc(/C=C(\Cc2cccs2)C(=O)O)n1Cc1ccc(C(=O)O)cc1 | -1 |
| Nc1ncn([C@H]2C[C@H](O)[C@@H](CO)O2)c(=O)n1 | -1 |
| CCCn1cnc2c1c(=O)n(CCCCC(C)=O)c(=O)n2C | -1 |
| CCOC(=O)c1cccnc1 | -1 |
| C=C(C)C(=O)OCCO | -1 |

----------
assay: qHTS RealTime-Glo MT Cell Viability Assay in HepG2 cells - 0 hour (AID 1224889); conditions: RealTime-Glo luminescence; series mostly up to 76.8 µM; further: nearly all actives have a fitted effect of over 50% in size
Inconclusive results are not listed. Calls of active or inactive are those of the source. Calls follow the shape of the dose curve; as a rule, active = well fitted cell-killing curve with a large enough effect in the repeat runs; inconclusive = weak or mixed curves, or effect the other way; inactive = flat fitted curve, though single readings scatter.
Outcome codes: yes (active), no (inactive)

| Compound | Assigned category |
| --- | --- |
| O=[N+]([O-])c1ccc2[nH]ncc2c1 | no |
| CCCCCCCCCc1ccc(OCCOCCO)cc1 | no |
| O=C1c2ccccc2S(=O)(=O)N1CCCCN1CCN(c2ncccn2)CC1 | no |
| Cc1ccc(C(C)OC(=O)C2(C)CCC(C(=O)O)C2(C)C)cc1 (stereo unspecified) | no |
| CN1Cc2cc(C(=O)N3CCC(C4CCNCC4)CC3)ccc2NC(CC(=O)O)C1=O (stereo unspecified) | no |
| O=C(OCCc1ccccc1)c1ccccc1 | no |
| O=C1C(O)=C(O)C(=O)C(O)=C1O | no |
| C[N+](C)(C)CCOC(=O)CCC(=O)OCC[N+](C)(C)C | no |
| Nc1ccc(N)c2c1C(=O)c1ccccc1C2=O | no |
| Nc1ccccc1S(=O)(=O)c1ccccc1 | no |
| Cc1ccc(N=Nc2c(O)c(C(=O)O)cc3ccccc23)c(S(=O)(=O)O)c1 | no |
| CCCCC(=O)OCC(=O)[C@H]1[C@H](C)C[C@H]2[C@@H]3C[C@H](F)C4=CC(=O)C=C[C@]4(C)[C@@]3(F)[C@@H](O)C[C@@]21C | yes |
| CC(=O)[O][Al][O]C(C)=O | no |
| CCCCC/C=C\C/C=C\CCCCCCCC(=O)NC(C)c1ccccc1 (stereo unspecified) | no |
| CCCCC(CC)COC(=O)COc1ccc(Cl)cc1Cl (stereo unspecified) | no |
| Cc1cccc(Nc2ccccc2)c1 | no |
| CCN(CC)CCNC(=O)c1cc(Br)c(N)cc1OC | no |
| CN(C)c1ccc(CCO)cc1 | no |
| COC(=O)c1ccc(I)cc1S(=O)(=O)NC(=O)Nc1nc(C)nc(OC)n1 | no |
| O=P(O)(OCc1ccccc1)OCc1ccccc1 | no |
| CC(C)Nc1ccc(NC(C)C)c2c1C(=O)c1ccccc1C2=O | no |
| c1cc(CCCc2ccncc2)ccn1 | no |
| CCC(Cl)CCC(Cl)C(Cl)CC(Cl)C(Cl)C(Cl)CCl (stereo unspecified) | no |
| CC1(c2ccccc2)OC(C(=O)O)=CC1=O (stereo unspecified) | no |
| CN(C)CCOC(c1ccccc1)c1ccc(Br)cc1 (stereo unspecified) | no |
| NCc1ccccc1Sc1ccccc1CO | no |
| CCOc1ccc(N)c([N+](=O)[O-])c1 | no |
| COC(C)(C)CCO | no |
| C[C@H]1C[C@H]2[C@@H]3CCC4=CC(=O)C=C[C@]4(C)[C@@]3(Cl)[C@@H](O)C[C@]2(C)[C@@]1(O)C(=O)CO | no |
| Clc1ccc(Cn2c(CN3CCCC3)nc3ccccc32)cc1 | no |
| CCCCOC(=O)CCCCCCCC(=O)OCCCC | no |
| CCCCCCCCCCCC(=O)OC[C@@H](O)[C@H]1OC[C@H](OCCO)[C@H]1OCCO | no |
| Nc1c(CC(=O)O)cccc1C(=O)c1ccc(Br)cc1 | no |
| O=C(Nc1ccccc1)c1ccccc1O | no |
| O=C(O)CC(=O)C(=O)O | no |
| COc1ccc(C(=O)c2ccc(OC)cc2O)c(O)c1 | no |

----------
assay: A CellTox Green Cytotoxicity Assay to monitor cytotoxicity in HepG2 cells - 40 hour (AID 1224879); conditions: CellTox Green fluorescence; series mostly up to 76.8 µM; further: nearly all actives have a fitted effect of over 40% in size
Records with an inconclusive call do not appear. The source made the active and inactive calls. Calls follow the shape of the dose curve; as a rule, active = well fitted activation curve with a large enough effect in the repeat runs; inconclusive = weak or mixed curves; inactive = flat fitted curve, though single readings scatter.
Possible outcomes: active, inactive

| Compound | Assigned category |
| --- | --- |
| O=C(OCCc1ccccc1)c1ccccc1 | inactive |
| NCC(=O)CCC(=O)O | inactive |
| CCN(CC)CCNC(=O)c1cc(Br)c(N)cc1OC | inactive |
| CCOC(=O)Cc1cccc2ccccc12 | active |
| CCCCO | inactive |
| CCOC(=O)NCCOc1ccc(Oc2ccccc2)cc1 | inactive |
| CCc1c(C(=O)NN2CCCCC2)nn(-c2ccc(Cl)cc2Cl)c1-c1ccc(Br)cc1 | inactive |
| CC(C)(C)Cl | inactive |
| CCCCC | inactive |
| c1cc(CCCc2ccncc2)ccn1 | inactive |
| CCCCC(CC)COC(=O)COc1ccc(Cl)cc1Cl (configuration not stated) | inactive |
| CCOc1ccc(N=Nc2ccc(/C=C/c3ccc(N=Nc4ccc(OCC)cc4)cc3S(=O)(=O)O)c(S(=O)(=O)O)c2)cc1 | inactive |
| CC1=CC=C(C(C)C)CC1 | inactive |
| CC1OC(=O)C(C)OC1=O (configuration not stated) | inactive |
| C=CC(=O)OCCOCCOC(=O)C=C | active |
| C[N+](C)(C)CCOC(=O)CCC(=O)OCC[N+](C)(C)C | inactive |
| CCOC(=O)c1cccnc1 | inactive |
| O=C(O)C1(C(=O)O)CCC1.[NH2-].[NH2-].[Pt+2] | inactive |
| C[N+]1(C)CCC(OC(=O)C(O)(c2ccccc2)C2CCCC2)C1 (configuration not stated) | inactive |
| Nc1cccc(S(=O)(=O)c2cccc(N)c2)c1 | inactive |
| CCCCOC(=O)CCCCCCCC(=O)OCCCC | inactive |
| CCO[C@H](Cc1ccc(OCCc2ccc(OS(C)(=O)=O)cc2)cc1)C(=O)O | inactive |
| Nc1ccc(S(=O)(=O)Nc2ccccc2)cc1 | inactive |
| Cc1ccccc1S(=O)(=O)O | inactive |
| CC(=O)OC[C@H]1O[C@@H](n2ncc(=O)[nH]c2=O)[C@H](OC(C)=O)[C@@H]1OC(C)=O | inactive |
| CCCCCCCN | inactive |
| Cc1oc2c(NC(=O)c3c(Cl)cccc3Cl)cccc2c1C(C)(C)O | active |
| Cc1cc(N)c2cc(NC(=O)Nc3ccc4nc(C)cc(N)c4c3)ccc2n1 | inactive |
| O=C1OC(=O)C2C3C=CC(C3)C12 (configuration not stated) | inactive |
| CC/C=C\CCOC(=O)CC | inactive |
| CC(COCCO)OCCO (configuration not stated) | inactive |
| OCc1cc(C(O)CNCCCCCCOCCCCc2ccccc2)ccc1O (configuration not stated) | active |
| Brc1c2ccccc2cc2ccccc12 | inactive |
| CC(C)Nc1ccc(NC(C)C)c2c1C(=O)c1ccccc1C2=O | active |
| Nc1cccc([N+](=O)[O-])c1 | inactive |
| C/C=C(/C(=C/C)c1ccc(OC(C)=O)cc1)c1ccc(OC(C)=O)cc1 | inactive |
| C#Cc1cccc(Nc2ncnc3cc(OCCOC)c(OCCOC)cc23)c1 | inactive |
